# Test system: A-375
# Measurement Protocol: Antiproliferative activity against human A-375 cells assessed as decrease in cell survival incubated for 48 hrs by MTT assay
# Type: functional, cell-based
# Recorded Conditions: A-375, 48 h
Measurement Label: IC50

# Structure As Smiles, Value Observed
rows = [
    ("CN(C)CCCNC(=O)c1ccc2[nH]c(=O)c3cc(=O)c(O)cn3c2c1", "> 200 µM"),
]

Memo: CN(C)CCCNC(=O)c1ccc2[nH]c(=O)c3cc(=O)c(OCc4ccccc4)cn3c2c1 , reported IC50: > 200 µM

----------
# Tested on: Quadruplex DNA
# Measurement Protocol: Stabilization of Parallel c-Kit1 G4-quadruplex DNA (5'-AGGGAGGGCGCTGGGAGGAGGG-3') (unknown origin) assessed as change in melting temperature at 5 equiv. by CD melting based analysis
# Assay type: nucleic-acid assay
Note to self: values exactly at 2 °C are fulfilled. So ΔTm at or above 2 °C is fulfilled, below is not fulfilled.

Examples from the recorded data:
# Structure As Smiles, Category
measured = [
    ("CN(C)CCCNC(=O)c1ccc2[nH]c(=O)c3cc(=O)c(O)cn3c2c1", "fulfilled"),
    ("O=C(NCc1ccccc1)c1ccc2[nH]c(=O)c3cc(=O)c(OCc4ccccc4)cn3c2c1", "not fulfilled"),
    ("O=C(NCCN1CCCC1)c1ccc2[nH]c(=O)c3cc(=O)c(O)cn3c2c1", "fulfilled"),
    ("CN(C)CCCNC(=O)c1ccc2[nH]c(=O)c3cc(=O)c(OCc4ccccc4)cn3c2c1", "fulfilled"),
]

Switching to the query record.
Answer whether ΔTm of O=C(NCCN1CCOCC1)c1ccc2[nH]c(=O)c3cc(=O)c(O)cn3c2c1 is greater than or equal to 2 °C. fulfilled
